Values compiled from patent US20250388604A1.

Tested on: m-IMCD3 cells expressing PDE4 long forms
Assay: cAMP levels in PGE2-stimulated 3D m-IMCD3 cell culture media
Type: cell-based
Settings: Mus musculus, mIMCD3; 3 μM test compound; compared to 100% for (DMSO + PGE2); read-out: cAMP level (% of PGE2-stimulated)
measured endpoint: activity at 3 µM (%)
API: value field is a number in %; no unit string.

                           structure_string                            assayed_system  measured_endpoint  obs_value
0  CCN1CCN(c2nc3c(s2)CN(S(=O)(=O)Cc2ccc(F)cc2)CC3)CC1  m-IMCD3 cells expressing PDE4 long forms   activity at 3 µM         47
1  O=C(c1ccc(C(F)(F)F)nc1)N1CCc2nc(N3C4CCC3CNC4)sc2C1  m-IMCD3 cells expressing PDE4 long forms   activity at 3 µM         43
2  CC(C)CC(=O)N1Cc2sc(N3C4CCC3CNC4)nc2C(C)(C)C1  m-IMCD3 cells expressing PDE4 long forms   activity at 3 µM         36
3  O=C(CC1CCCC1)N1CCc2nc(N3C[C@@H]4C[C@H]3CN4)sc2C1  m-IMCD3 cells expressing PDE4 long forms   activity at 3 µM         42
4  CCN1CC2CCC(C1)N2c1nc2c(s1)CN(S(=O)(=O)Cc1ccc(F)cc1)CC2  m-IMCD3 cells expressing PDE4 long forms   activity at 3 µM         52
5  CC(C)N1CC2CCC(C1)N2c1nc2c(s1)CN(C(=O)CC1CCCC1)CC2  m-IMCD3 cells expressing PDE4 long forms   activity at 3 µM         35
6  O=C(CC1CCCC1)N1CCc2nc(N3C4CCCC3CNC4)sc2C1  m-IMCD3 cells expressing PDE4 long forms   activity at 3 µM         58
7  O=C(CC1CCCC1)N1CCc2nc(N3CC4CCCC(C3)N4)sc2C1  m-IMCD3 cells expressing PDE4 long forms   activity at 3 µM         33

// next item, activity at 3 µM requested
Entry under test: `O=C(CC1CCCC1)N1Cc2nc(N3C4CCC3CNC4)sc2C1` . Its activity at 3 µM was 36

---

Tested on: m-IMCD3 cells expressing PDE4 long forms
Experiment: cAMP levels in PGE2-stimulated 3D m-IMCD3 cell culture media
Assay type: cell-based
Conditions: Mus musculus, mIMCD3; 3 μM test compound; compared to 100% for (DMSO + PGE2); read-out: cAMP level (% of PGE2-stimulated)
measured endpoint: activity at 3 µM
Kindly write the number and append the unit.

# count of solved cases: 3
>>> print(df.to_string())
                                   compound  measured_endpoint  obs_value
0  O=S(=O)(NC1CCCC1)N1CCc2nc(N3C4CCC3CNC4)sc2C1 [Example 108]   activity at 3 µM        53%
1  CCN1CCN(c2nc3c(s2)CN(C(=O)N[C@H]2CCOc4ccccc42)CC3)CC1 [Example 297]   activity at 3 µM        45%
2  CC1(CC(=O)N2CCn3nc(N4C5CCC4CNC5)cc3C2)CCCC1 [Example 128]   activity at 3 µM        50%

O=C(N[C@H]1CCOc2ccccc21)N1CCc2nc(N3C4CCC3CNC4)sc2C1 [Example 293] yielded activity at 3 µM of 36%

Form: compound = CC(C)C(=O)N1Cc2sc(N3C4CCC3CNC4)nc2CC1(C)C [Example 268] ; activity at 3 µM = 39%

# activity at 3 µM (compound: O=C(C1COc2ccccc21)N1CCc2nc(N3C4CCC3CNC4)sc2C1 (centres unmarked) [Example 184] ) is 58%

Noted for O=C(CC1CCCC1)N1CCc2nc(N3CCN4CCC[C@H]4C3)sc2C1 [Example 271] : its activity at 3 µM reads 42%

// sample O=C(CC1CCCC1)N1CCc2sc(N3C4CCC3CNC4)nc2C1 [Example 281] , its activity at 3 µM was 51%
